Molecular target: T1, RXFP1 receptor (endogenous, on OVCAR5 cells) (UniProt Q9HBX9 1-757, limits assumed)
T1 sequence (looked up): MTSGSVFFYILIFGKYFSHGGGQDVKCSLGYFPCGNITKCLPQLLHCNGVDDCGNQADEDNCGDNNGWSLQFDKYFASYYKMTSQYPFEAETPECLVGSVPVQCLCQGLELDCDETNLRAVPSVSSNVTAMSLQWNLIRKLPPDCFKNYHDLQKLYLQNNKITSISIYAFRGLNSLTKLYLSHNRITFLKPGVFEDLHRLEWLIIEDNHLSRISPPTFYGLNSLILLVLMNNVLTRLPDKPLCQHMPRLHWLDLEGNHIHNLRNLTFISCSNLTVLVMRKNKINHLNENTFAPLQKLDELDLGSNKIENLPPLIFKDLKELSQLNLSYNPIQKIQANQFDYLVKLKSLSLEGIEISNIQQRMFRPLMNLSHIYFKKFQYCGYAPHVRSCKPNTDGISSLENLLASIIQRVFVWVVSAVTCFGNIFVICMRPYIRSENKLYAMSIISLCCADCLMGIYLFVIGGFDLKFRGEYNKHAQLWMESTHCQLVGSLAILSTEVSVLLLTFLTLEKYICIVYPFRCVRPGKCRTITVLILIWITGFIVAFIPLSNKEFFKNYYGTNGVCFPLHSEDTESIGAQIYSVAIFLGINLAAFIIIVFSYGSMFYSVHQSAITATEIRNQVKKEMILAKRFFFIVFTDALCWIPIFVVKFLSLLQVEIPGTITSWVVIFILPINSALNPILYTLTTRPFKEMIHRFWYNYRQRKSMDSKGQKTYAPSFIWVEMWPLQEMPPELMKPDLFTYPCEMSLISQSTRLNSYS
Assay: cell-based or functional assay
Starred links: 1 amine or outer side, 2 acyl side, 3 side chain; linkers in the order of their positions; H or OH if unused. Non-standard residues stand in square brackets, D forms with d. Groups on a side chain read outwards from the residue. *: point of attachment. TTDS = 4-[3-[2-[2-(3-aminopropoxy)ethoxy]ethoxy]propylamino]-4-oxo-butanoyl; γGlu = O=C(O)[C@H](CCC(=O)[*:2])N[*:1]; Palmitoyl = CCCCCCCCCCCCCCCC(=O)*; αMeK = C[C@](N)(CCCCN)C(=O)O; Aib = CC(C)(N)C(=O)O
Reported Metric: EC50 (nM), OVCAR 5 cells (cAMP)
Returns: string containing the numeric result and its unit.

A selection of reference data follows.
Entry Ac-LEGREKVRAK(Ac)I[Aib][Aib]EGK([TTDS-TTDS-γGlu-γGlu-γGlu-Palmitoyl])STWS[Aib]RKK(Ac)-NH2 [peptide of SEQ ID NO: 4] needs its EC50 (nM), OVCAR 5 cells (cAMP) filled in; supply it.
1.5 nM

Entry Ac-LEGREKVRAK(Ac)I[Aib][Aib]EGK([TTDS-TTDS-TTDS-γGlu-γGlu-γGlu-Palmitoyl])STWS[αMeK]RAK(Ac)-NH2 [peptide of SEQ ID NO: 11] needs its EC50 (nM), OVCAR 5 cells (cAMP) filled in; supply it.
0.83 nM

Entry Ac-[Aib]EGREKVRAK(Ac)I[Aib]IEGK([TTDS-TTDS-TTDS-γGlu-γGlu-γGlu-Palmitoyl])STFS[αMeK]RAK(Ac)-NH2 [peptide of SEQ ID NO: 86] needs its EC50 (nM), OVCAR 5 cells (cAMP) filled in; supply it.
0.3 nM

Entry Ac-LEGREKVRAK(Ac)I[Aib][Aib]EGK([TTDS-TTDS-TTDS-γGlu-γGlu-γGlu-Palmitoyl])STFS[αMeK]RAK-NH2 [peptide of SEQ ID NO: 49] needs its EC50 (nM), OVCAR 5 cells (cAMP) filled in; supply it.
0.19 nM

Entry Ac-LEGREKVRAK(Ac)I[Aib][Aib]EGK([TTDS-TTDS-TTDS-γGlu-γGlu-γGlu-Palmitoyl])SKFS[Aib]RKK(Ac)-NH2 [peptide of SEQ ID NO: 79] needs its EC50 (nM), OVCAR 5 cells (cAMP) filled in; supply it.
0.45 nM

Entry Ac-LEGRERVRAK(Ac)I[Aib][Aib]EGK([TTDS-TTDS-TTDS-TTDS-γGlu-γGlu-γGlu-Palmitoyl])STWS[Aib]RRK(Ac)-NH2 [peptide of SEQ ID NO: 75] needs its EC50 (nM), OVCAR 5 cells (cAMP) filled in; supply it.
0.19 nM

Next binder, please.
Entry Ac-LEGREKVRAK(Ac)I[Aib][Aib]EGK([TTDS-TTDS-TTDS-γGlu-γGlu-γGlu-Palmitoyl])STW[Aib]KRAK(Ac)-NH2 [peptide of SEQ ID NO: 35] needs its EC50 (nM), OVCAR 5 cells (cAMP) filled in; supply it.
2.33 nM
